The reported numbers originate from patent US20250188153A1.

Consider the following binders; for each one, report its EC50.
- tgt: hMPV B2 F trimer (heated) (human metapneumovirus)
- assay: ELISA on coated recombinant protein, OD 405 nm
Give your result in µg/mL as a bare value.

Please fill in: EC50 reported for MPV481 (antibody, V domains shown) VH: EVQLVQSGGGLVKPGGSLRLSCAASGLPFNNAWMNWVRQAPGKGLEWVGRIKSKIDGGTTEYAAPVKGRFTISRDDSENTLYLQMNSLRTEDTAVYYCTTEYYALLSGNYSDCWGQGTLVTVSS VL: DIVMTQSPFSLSLSPGERATLSCRASQSIKRAYLGWYQQKPGQAPRLLIYGASNRATGIPDRFSGSGSGTDFTLTISRLEPEDFAVYYCQQYGDSPGGSFGQGTKLEIR = 0.31

binder MPV483 (antibody, V domains shown) VH: EVQLVQSGAELKKPGSSVKVSCKASGDTFSNYAISWVRQAPGQGLEWMGGIIPIYNTANYAQKFQGRVTLTADESTSTAYMELSSLRSEDTAVYYCARDVRNNWSVLRGARYYYYGMDVWGQGTTVTVSS VL: DIVMTQTPFSLSASVGDRVTVTCRASQDISNSLAWFQQKPGKAPKSLIYAASSLQSGVPTRFSGGGSGTDFTLTISSLQPEDFATFYCLQYDSFPPTFGGGTKVEI , EC50 observed: 0.33

So for MPV491 (antibody, V domains shown) VH: QVQLQESGPGLVKSSQTLSLTCTVSGGSISSVTSHWTWIRQHPGKGLEWIGYIFSSGTTYYSPSLRSRLTMSVDTSKNQFSLQLSSVTAADTAMYYCARGIYCGDSCYKGTDYWGRGTLVTVSS VL: IRLMTQTPVTLPVTPGEPASISCRSSQSLLHSNGYNYLDWYLQKPGQSPQLLIYRGSTRASGVPDRFSGSGSGTEFTLKISRVEAEDVGVYYCMQGLQTPYTFGQGTKLESR , the logged EC50 turned out to be 1.7
